# Assayed system: Recombinant human mPGES-1 (Homo sapiens)
# Construct: made in house; host or cells: CHO cells (crude microsomal fractions)
# Test summary: In-vitro screening of mPGES-1 inhibitors (inhibition of PGE2 formation from PGH2, HTRF detection)
# Format: biochemical
# Condition summary: 10 μM test compound; mPGES-1 enzyme, crude microsomal fractions; read-out: Percentage inhibition at 10 μM
Entries annotated with measured inhibition at 10 µM
Please answer using a numeric value trailed by its unit.

{"Structure smiles string": "O=C(NCc1ccc(Cl)c(-n2nc(-c3ccc(Cl)cc3F)[nH]c2=O)c1)C1CC1", "inhibition at 10 µM": "94.3%"}
{"Structure smiles string": "COc1cc(-n2nc(-c3c(F)cccc3Cl)[nH]c2=O)ccc1C(=O)Nc1ccc(F)c(C(F)(F)F)c1", "inhibition at 10 µM": "96.8%"}
{"Structure smiles string": "CC(C)(C)C(=O)NCc1ccc(Cl)c(-c2nn(-c3ccc(C(F)(F)F)cc3F)c(=O)[nH]2)c1", "inhibition at 10 µM": "98.7%"}
{"Structure smiles string": "CCn1c(-c2c(F)cccc2Cl)nn(-c2ccc(C#Cc3cccc(Cl)c3F)cc2)c1=O", "inhibition at 10 µM": "17.9%"}
{"Structure smiles string": "CC(C)(C)C(=O)NCc1ccc(Cl)c(-c2nn(-c3ccc(C(F)(F)F)nc3)c(=O)[nH]2)c1", "inhibition at 10 µM": "92.9%"}
{"Structure smiles string": "COc1cc(-n2nc(-c3c(C)cccc3Cl)[nH]c2=O)ccc1C(=O)Nc1ccc(F)c(C(F)F)c1", "inhibition at 10 µM": "97.9%"}

inhibition at 10 µM for CC(C)(CF)C(=O)NCc1ccc(Cl)c(-c2nn(-c3ccc(C(F)(F)F)cc3)c(=O)[nH]2)c1 ? 99.4%

Using the record for CC(C)C(=O)NCc1ccc(Cl)c(-n2nc(-c3ccc(C#CC(C)(C)C)cc3)[nH]c2=O)c1 , report its inhibition at 10 µM. 90.7%

Could you tell me which inhibition at 10 µM is on file for CC(C)(C)C(=O)NCc1ccc(Cl)c(-n2nc(-c3ccc(C(F)(F)F)cc3)[nH]c2=O)c1F ? 99.6%

Any idea what its inhibition at 10 µM is? The compound is CC(C)(CO)C(=O)NCc1ccc(Cl)c(-n2nc(-c3ccc(C#CC4CC4)cc3)[nH]c2=O)c1 100%

Tell me the measured inhibition at 10 µM of CC(C)(C)C(=O)NCc1cc(-c2nn(-c3ccc(Cl)cc3)c(=O)[nH]2)c(Cl)cc1F , please. 99.3%

Report inhibition at 10 µM for COc1cc(-n2nc(-c3c(Cl)cccc3Cl)[nH]c2=O)ccc1-c1nc2cc(C(F)(F)F)ccc2[nH]1 please. 94.5%

Looking for the measured inhibition at 10 µM of CC(C)(C)C(=O)NCc1ccc(Cl)c(-c2nn(-c3cc(F)cc(C(F)(F)F)c3)c(=O)[nH]2)c1 , can you help? 99.2%

Please look up its inhibition at 10 µM: COc1cc(-n2nc(-c3c(F)cccc3Cl)[nH]c2=O)ccc1-c1nc(-c2cc(F)cc(C(F)(F)F)c2)no1 96.5%

Entry under review: CC(C)(C)C(=O)NCc1ccc(Cl)c(-c2nn(-c3cccc(C(F)(F)F)c3)c(=O)[nH]2)c1 . Reported inhibition at 10 µM? 94%

Please give the measured inhibition at 10 µM for this compound: O=C(NCc1cnc(C(F)F)c(-c2nn(-c3ccc(C(F)(F)F)cc3)c(=O)[nH]2)c1)C1CCC1 98.5%

May I ask what inhibition at 10 µM has been recorded for CC(C)(C)C(=O)NCc1ccc(Cl)c(-n2nc(-c3ccc(Cl)c(C(F)(F)F)c3)[nH]c2=O)c1 ? 97.6%

---

# Assayed system: Recombinant human mPGES-1 (Homo sapiens)
# Construct: made in house; host or cells: CHO cells (crude microsomal fractions)
# Test summary: In-vitro screening of mPGES-1 inhibitors (inhibition of PGE2 formation from PGH2, HTRF detection)
# Assay type: biochemical
# Condition summary: 1 μM test compound; mPGES-1 enzyme, crude microsomal fractions; read-out: Percentage inhibition at 1 μM
# Text: In-Vitro Protocol for Screening of mPGES-1 Inhibitors: mPGES-1 (Microsomal prostaglandin E synthase-1) is a microsomal enzyme that converts endoperoxide substrate PGH2 (prostaglandin H2) to product PGE2 (prostaglandin E2) by isomerization in the presence of reduced glutathione (GSH). mPGES-1 inhibitors were screened by assessing their ability to inhibit formation of PGE2 from PGH2 in the presence of mPGES-1 using an anti-PGE2 antibody based detection method. […]
Here, each record is paired with measured inhibition at 1 µM data.
Numbers only; they are read as %.

Record excerpt, results attached:
{"Structure smiles string": "Cc1ccc(-n2nc(-c3cc(CNC(=O)C(C)(C)C)ccc3Cl)[nH]c2=O)cc1Cl", "Unit symbol": "%", "inhibition at 1 µM": 97.4}
{"Structure smiles string": "O=c1[nH]c(-c2c(F)cccc2Cl)nn1-c1ccc(C#Cc2cc(Cl)ccc2Cl)cc1", "Unit symbol": "%", "inhibition at 1 µM": 84.9}
{"Structure smiles string": "Cc1ccc(CNC(=O)C(C)(C)C)c(C)c1-c1nn(-c2ccc(C#CC3CC3)cc2)c(=O)[nH]1", "Unit symbol": "%", "inhibition at 1 µM": 97.9}
{"Structure smiles string": "CC(C)(C)C(=O)NCc1ccc(Cl)c(-c2nn(-c3ccc(Cl)c(C(F)(F)F)c3)c(=O)[nH]2)c1", "Unit symbol": "%", "inhibition at 1 µM": 98.5}
{"Structure smiles string": "CC(C)(C)C(=O)NCc1ccc(Cl)c(-n2nc(-c3ccc(Cl)c(C(F)(F)F)c3)[nH]c2=O)c1", "Unit symbol": "%", "inhibition at 1 µM": 98.6}
{"Structure smiles string": "CC(C)(C)C(=O)NCc1ccc(Cl)c(-c2nn(-c3ccc(C(F)(F)F)cc3)c(=O)[nH]2)c1", "Unit symbol": "%", "inhibition at 1 µM": 100}

Which inhibition at 1 µM is listed for CC(C)(C)C(=O)NCc1ccc(Cl)c(-c2nn(-c3ccc(Cl)c(F)c3)c(=O)[nH]2)c1 ? 93.8

Which value of inhibition at 1 µM has been reported for CC(C)(C)C(=O)NCc1ccc(Cl)c(-c2nn(-c3ccc(C(F)(F)F)c(F)c3)c(=O)[nH]2)c1F in the records? 96.8

Give its inhibition at 1 µM value. Item: COc1cc(-c2nn(-c3c(Cl)cccc3Cl)c(=O)[nH]2)ccc1C(=O)Nc1ccc(F)c(C(F)(F)F)c1 93.2

Look up inhibition at 1 µM: CC(C)(C)C(=O)NCc1ccc(Cl)c(-c2nn(-c3ccc(C(F)(F)F)cc3)c(=O)[nH]2)c1F 98.8

// lookup inhibition at 1 µM for COc1cc(-n2nc(-c3c(F)cccc3Cl)[nH]c2=O)ccc1C(=O)Nc1cc(Cl)ccc1C 87.4

Report inhibition at 1 µM for O=C(NCc1cnc(C(F)F)c(-c2nn(-c3ccc(C(F)(F)F)cc3)c(=O)[nH]2)c1)C1CCC1 please. 96.2

// returns reported inhibition at 1 µM for input CC(C)(C)C(=O)NCc1ccc(Cl)c(-n2nc(-c3ccc(C#CC4CC4)cc3)[nH]c2=O)c1F 99.5

Return reported inhibition at 1 µM; argument: CC(C)(C)C(=O)NCc1ccc(Cl)c(-c2nn(-c3ccc(C#CC4CC4)cc3)c(=O)[nH]2)c1 99

---

# Assayed system: Recombinant human mPGES-1 (Homo sapiens)
# Sequence (O14684 1-152): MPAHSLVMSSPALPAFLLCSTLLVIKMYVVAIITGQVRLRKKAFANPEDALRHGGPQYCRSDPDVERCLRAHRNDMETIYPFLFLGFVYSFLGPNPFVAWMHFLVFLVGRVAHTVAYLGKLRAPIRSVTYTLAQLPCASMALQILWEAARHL
# Test summary: In-vitro screening of mPGES-1 inhibitors (inhibition of PGE2 formation from PGH2, HTRF detection)
# Condition summary: mPGES-1 enzyme; class symbols
Listing: IC50 of selected compounds

{"Structure smiles string": "CC(C)(C)C(=O)NCc1cc(-n2nc(-c3ccc(C#CC4CC4)cc3)[nH]c2=O)c(Cl)cc1Cl", "Recorded metric": "IC50", "Reported value": "50 to 100 nM"}

Fill in: IC50 of COc1cc(-n2nc(-c3cc(CNC(=O)C4CC4)ccc3Cl)[nH]c2=O)ccc1-c1nc(-c2ccc(Cl)cc2)no1 is ___ < 50 nM

Name the reported IC50 value associated with the compound COc1cc(-n2nc(-c3c(Cl)cccc3C#N)[nH]c2=O)ccc1C(=O)Nc1ccc(F)c(C(F)(F)F)c1 < 50 nM

Requested read-out: IC50. Entry: COc1cc(-n2nc(-c3cc(CNC(=O)C4CC4)ccc3Cl)[nH]c2=O)ccc1C(=O)Nc1cccc(C(F)(F)F)c1 < 50 nM

For the compound shown here, CC(C)(C)C(=O)NCc1ccc(Cl)c(-n2nc(-c3ccc(C#CC4CC4)c(F)c3)[nH]c2=O)c1 , give the reported IC50. < 50 nM

# IC50 lookup, item CC(C)(C)C(=O)NCc1ccc(Cl)c(-n2nc(-c3ccc(C(F)(F)F)cc3F)[nH]c2=O)c1F 50 to 100 nM

Suppose we examine the compound O=C(NCc1ccc(Cl)c(-n2nc(-c3ccc(C#Cc4cc(Cl)ccc4Cl)cc3F)[nH]c2=O)c1)C1CC1 ; what IC50 value has been reported? < 50 nM

Given the entry Cc1ccc(-n2nc(-c3cc(CNC(=O)C(C)(C)C)c(F)cc3Cl)[nH]c2=O)cc1Cl , report its measured IC50. < 50 nM

I'd like to know its IC50. The compound in question is O=C(NCc1cnc(C(F)F)c(-c2nn(-c3ccc(C(F)(F)F)cc3)c(=O)[nH]2)c1)C1CCC1 < 50 nM

State the recorded IC50 for this entry: CC(C)C(=O)NCc1ccc(Cl)c(-n2nc(-c3ccc(C#CC(C)(C)C)cc3)[nH]c2=O)c1 < 50 nM
